Ref: ChEMBL document CHEMBL1130832

- TARGET UNDER TEST: Human immunodeficiency virus type 1 reverse transcriptase (Human immunodeficiency virus 1, UniProt Q72547)
- ASSAY INFO: Compound was evaluated for enzymatic inhibitory activity against recombinant HIV reverse transcriptase
READOUT TYPE: IC50 (µM)

| CHEM SMILES | READOUT TYPE | QUALIFIER SYMBOL | OBSERVED |
| --- | --- | --- | --- |
| CCc1c(O)nc(SCSC)nc1Cc1ccccc1 | IC50 | = | 9.7 |
| CSCSc1nc(O)c(C(C)C)c(Cc2cc(C)cc(C)c2)n1 | IC50 | = | 4.8 |
| CSCSc1nc(O)c(C(C)C)c(Cc2ccccc2)n1 | IC50 | = | 6.1 |
| Cc1cn([C@H]2C[C@H](N=[N+]=[N-])[C@@H](CO)O2)c(=O)[nH]c1=O | IC50 | > | 100 |
| CSCSc1nc(O)c(C)c(Cc2ccccc2)n1 | IC50 | = | 18.8 |

###

- ASSAY INFO: Compound was evaluated for cytotoxic activity against peripheral blood mononuclear cells using microculture tetrazolium assay
- Type: functional
- RUN PARAMETERS: Homo sapiens
pIC50: −log10 of the molar value.
List of pIC50 values.

| MOLECULE | pIC50 |
| --- | --- |
| CSCSc1nc(O)c(C(C)C)c(Cc2cc(C)cc(C)c2)n1 | < 4.00 |
| CSCSc1nc(O)c(C(C)C)c(Cc2ccccc2)n1 | < 4.00 |
| CSCSc1nc(O)c(C)c(Cc2ccccc2)n1 | < 4.00 |
| Cc1cn([C@H]2C[C@H](N=[N+]=[N-])[C@@H](CO)O2)c(=O)[nH]c1=O [ZIDOVUDINE] | 4.00 |
| CCc1c(O)nc(SCSC)nc1Cc1ccccc1 | < 4.00 |
| CCOCn1c(Cc2ccccc2)c(C(C)C)c(=O)[nH]c1=O [EMIVIRINE] | < 4.00 |
